B1: Zinc finger MYM-type protein 2, residues 463 to 506; numbered along this chain, Q9UBW7 (parent)
chain: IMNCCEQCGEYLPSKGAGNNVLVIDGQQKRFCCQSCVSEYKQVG

# Variants of: B1
# assay: abundance fitness (aPCA) (normalised: wild type 0, dead -1); higher = more abundant; growth selection in yeast, the domain comes from the species named
# cond: Homo sapiens
measured metric: abundance fitness
Answers are plain numbers.

• A17R = -0.628

Provide each entry's abundance fitness from the list below.
1. V37R
2. S35A
3. V37G
4. C4Q
5. Q7E
6. S35Y
7. C4V

A.
[-0.112, -0.072, -0.226, 0.142, -0.26, -0.08, -0.029]

Every entry's value here was drawn from the Human Domainome abundance scans (Beltran et al. 2025).
